Test: yeast display, Sf9 membrane polyspecificity reagent, FACS + sequencing; frameworks hold sequencing errors
measure_name: polyreactivity (PSR sort gate)

ordered_residues	observed_result
QVQLVESGGGLVQAGGSLRLSCAASGFNFTGYTMGWYRQAPGTERELVAAISSSGGSTYYADSVKGRFTISRDNAKNTVYLQMNSLKPEDTAVDYCNAPRYRPGYWYDYWGQGTQVNVSS	high polyreactivity
QVQLVESGGGLVQAGGSLRLSCAASGRIFSKYAMGWYRQAPGKEMELDAAITRSGGSTYYADSVKGRFTISRDNAKNTVYLQMNSLKPEDTAVYYCNAGTYSTSVPYRYNYWGQGTQVTVSS	high polyreactivity
QVQLVESGGGLVQAGGSLRLSCAASGFIFYRYAMGWYRQAPGKERELVAAISSSGGSTYYADSVKGRFTISRDNAKNTVYLQMNSLKPEDTAVYYCNKRPQQYSPGYDYWGQGTQVTVSS	high polyreactivity
QVQLVESGGGLVQAGGSLRLSCAASGSIFYPYTMGWYRQAPGKERELVAAISGGCRTYYADSVKGRFTISRDNAKNTVYLQMNSLKPEDTAVYYCAARYGYRWLVGKYEYWGQGTQVTVSS	high polyreactivity
QVQLVESGGGLVQAGGILRLSCAASGSIFSPYVMGWYRQAPGKERELVAAISTGGSTYYADSVKGRFTISRDNAKNTVYLQMNSLKPEDTAVYYCATDGWKQSAYDYWGQGTQVTVSS	low polyreactivity
QVQLVESGGGLVQAGGSLRLSCAASGITFGYYAMGWYRQAPGKERELVAAITWSGSSTYYADSVKGRFTISRDNAKNTVYLQMNSLKPEDTAVYYCAAEYSSHYAVWRGHSGYWGQGTQVTVSS	high polyreactivity
QVQLVESGGGLVQAGGSLRLSCAAYGSTFYAYAMGWYRQAPGKERELVAAIDSGGSTYYADSVKGRFTISRDNAKNTVYLQMNSLKPEDTAVYYCAVRHRYTRAYWGRDYWGQGTQVTVSS	low polyreactivity
QVQLVESGGGLVQAGGSLRLSCAASGSNFETYVMGWYRQAPGKERELFAAINSGGSTNYADSVKGRFTISRDNAKNTVYLQMNSLKPEETAVYYCNADWFTPAQPWYRYFIRYDYWGQGSQVTVSS	low polyreactivity
QVQLVESGGGLVQAGGSLRLSCAASGRIFYAYAMGWYRQAPGKERELVAAISYIAGITYYADSVKGRFTISRDNAKNTVYLQMNSLIPEDTAVYYCAADDMVTGPLDFWGQGTQVTVSS	low polyreactivity
QVQLQESGGGLVQAGGSLRQSYAASGYIFPSLAMGWYRQAPGKEREFVAAIGRGSTNNYADSVKGRFTISRDNAKKTAYQQMNSLKPEDTAVYYCAAAASPLTRHLYWGQGTQVTVSS	low polyreactivity
QVQLVESGGGLVQARGSLRLSCAASGFTFPSYAMGWYRQAPGKERELVARITWIGGRTYYADSVKGRFTISRDNAKNTVYLQMNSLKPEDSAVYYCAARIGGGPVKYDYWGQGTQVTVSS	high polyreactivity

---

Experiment: yeast display, Sf9 membrane polyspecificity reagent, FACS + sequencing; frameworks hold sequencing errors
measure_name: polyreactivity (PSR sort gate)

ordered_residues	observed_result
QVQLVESGGGLVQAGGSLRLSCAASGFTIWWYAMRWYRQATGKERELVATITSGGRTYYADSVKGRFTISRDNAKNTDYLQMNSLKPEDTAVYYCAAESEVGYVYDPMYYWGQGTQVTVSS	high polyreactivity
QVQLVESGGGLVQAGGSLRLSCAASGSTFWSYAMGWYRQATGKERELVAAITSGGRTYYADSVKGRFTISRDNAKNTVYLQMNCLKAEDTAVYYCAAEGSVGLYGMIMHYWGQGTQVTVSS	high polyreactivity
QVQLVESVGGLVQAGGSLPLSGAASGSILGFNAMGWSRQAPGKDRELVASITTSGGSTYFADSVKGRFTISRDNAKNTVYLQMNSLKPEDTAVYYCAAYRRYQFVTYYYWGQGTQVTVSS	high polyreactivity
QVQLVESGGCLVQAGGSRRLSCDASVRIVPVYAMGWYRQAHGNERELVAAISQSGGSTYADSVKGRFTISRDNAKNTVYLQMNSLKPEDTAVYYCAARYWKWRPAYEYWGPGTQVTVSS	high polyreactivity

---

Assay: yeast display, Sf9 membrane polyspecificity reagent, FACS + sequencing; frameworks hold sequencing errors

ordered_residues	polyreactivity (PSR sort gate)
QVQLVESGGGLVQAGGGLRLSCAASGRIFAGYAMGWYRQAPGKEREFVAAISRSGVSTYYADSVKGRFTISRDNAKNTVYLQMNSLKPEDTAVYYCNVYKGNVVEHDYWGQGTQVTVSS	high polyreactivity
QVQLVESGGGLVQAGGSLRLSCAASGLTFAGNAMGWSRQAPGTERELVAAITWTGDRTYYADSVKGRFTISRDNAKNTVYLQMNCLKPEDTAVYYCAAQVRSLYSPGWYYYWGQGTQVTVSS	high polyreactivity
QVQLVESGGGLVQAGGSLRLSCAASGRTFQTYAMGWYRQAPGKERELVAAISSDGSTYYADSVKGRFTISRDNAKNTVYLQMNSLKPEDTAVYYCNTDIGDKYYYHVRVDYEYWGQGTQVTLSS	low polyreactivity
QVQLVESGGGLVQAGGSLRLSCAASGFTFDWYAMGWSRQAPGKERELVAAISSSGTSRYYADSVKGRFTISRDNAKNTVYLQMNSLKPEDTAVYYCAARWYYVTPLRRYGYWGQGTQVTVSS	high polyreactivity
QVQLQESGGLVQAGCLRLSCAASGSVSYHEAMGWYRQAPGKERELVATISFGANTNYADSVKGRFTISRDNAKNTVYLQMNSLKPEDTAVYYCAAESLFDDYYGYWGQGTQVTVSS	low polyreactivity
QVQLVESGGGLVQAGGSLRLSCAASGIISVRNTMGWYRQAPGKERELVAAISGSGGSTHYADSVKGRFTISRDNAKNTVYLQMNSLKTEDTEVYYCAVRSYGYWHFGYWGQGTQVTVSS	high polyreactivity
QVQLVESGGGLVQAGGSLRLICAASGRIFGVYAKGWYRQAPGKERDFVATNSNRGGGSTYYADSVKGRFTISRDNAMNTVYLQMNSLKPEDTSVYYCNVRARYPFGYDYWGQGTQVTVSS	high polyreactivity
QVQLVESGGGLVQAGGSLRLSCAASGITFWEYAMGWYRQAPGKERELVAAISRSGGSTYYADSVKGRFTISRDTAKNTVYLQMNSLKPEDTAVYYCAAYTRRPIYDYWGQGTQVTVSS	high polyreactivity
QVQLVESGGGLVQAGGSLRLICAGSGRIFYRYPMGWYRQAPGKERELVAAITVRGGSTYYADSVKGRFTISRDNAKNTVYVQRHSLKPEDTALYYCATGLGVLYDYWYEVEFDYWGQGTQVSVSS	low polyreactivity
QVQLVESGGGLVQAGGRLRLSCAASGRTFEGYAMAWYRQAPGKERELVAAISGSSGSTYYADSVKGRFTISRDNAKNTVYLQMNSLKPEDTAVYYCNADYDWPGGSDYWGQGTQVTVSS	low polyreactivity
QVQLEESGGGLVQAGGSLRLSCAASGRTLQRNAMGWYRQAPGKERELVAAISWSGASTYYADSVKGRFTISRDNAKNTVYLQMTSLKPEDTAVYYCAATYIDRGNIYDYWGQGTQVTVSS	high polyreactivity

---

Experiment: yeast display, Sf9 membrane polyspecificity reagent, FACS + sequencing; frameworks hold sequencing errors

ordered_residues	polyreactivity (PSR sort gate)
QVQLVESGGGLVQAGGSLRLSCAASGFTFSRYTMGWYRQAPGKERELDAAINRRGGSTYYADSVKGRFTISRDNAKNTVYLQMNSLKPEDTAVYYCAATYTVRSGNGIANDYWGQGTQVTVSS	high polyreactivity
QVQLVESGGGLVQAGGSLRLSSAASGSPFIYYVMGWYRQAPGKERELVAAITRSGSTNYADSVKGRFTISRDNAKNTVYLQMNSLKPEDTAVYYCAAERALSRYGYWGHGTQVTVSS	low polyreactivity
QVQLVESGGGLVQAGGSLRLSCAASGRTFKFYAMGWDRQAPGSDRELVAAISSSGGRTYYADSVKGRFTISRDNAKNTVYLQMNSLKPEDTAVYYCAAVPGSKFVQKDDYWGQGTQVTVSS	low polyreactivity
QVQLVESGGGLVQAGGSLRLSCAASGSTFLYYSMGWYRQAPGKETELVAAIDSGGSTYYADSVKWRFTISRDNAKNTVYLQMNSLKPEDTAVYYCNPDFADHWPPNGPGAHDYWGQGTQVTVSS	low polyreactivity
QVQLVESGGGLVQAGGSLGLSCAATGSIFNPYAMGWYRQAPGKVRELVAAISSTGSTYYADSVKGRFTISRDNAKNTVYLQMISLKPEDTAVYYCAADWYWYWFSTYDYWGQGTEVTVSS	low polyreactivity
QVQLVESGGGLVQAGGSLRLSCAASGFTFYVNAMGWYRQAPGKEREFVAAISASGASTRYADSVKGRFTISRDNAKNTVYLQMNSLKPEDTAVYYCAADAPAWILEAYGYWGQGTQVTVSS	low polyreactivity
QVQLVESGGGLVQAGGSLRLSCAASGRTFKYYAMGWSRQAPGKERELVATISSGGSTNYADSVKGRFTISRDNAKNTVYLQMNSLKPEDTAVYYCADTIGHNGFDYWGQGTQVTVSS	low polyreactivity
QVQLVESGGGLVQAGGSLRLSCAASGITFSGYVMGWYLQAPGKERELVAAISRSGGSTYYADSVKGRYTISRDNAKNTVYLQMNSLKPEDTAVYYCATASRTSRTGWAGYFWGQGTQVTVSS	high polyreactivity
QVQLVESGGGLVQAGGSLRLSCAASGFTFTWYAMGWYRQAPGKERELVAAISSGGGRTYYADSVKGRFTISRDNAKNTVYLQMNSLKPEDTAVYYCNKVSSFGYYYWGQGTQVTVSS	high polyreactivity
QVQLVESGGGLVQAGGSLRLSCAASGITLPAYTMGWYRQAPGKERELVAAISWGGTSTYYADSVKGRFTISRDNAKNTVYLQMNSLKPEDTAVYYCNKAYATYPGYDYWGQGTQVTLSS	high polyreactivity
QVQLVESGGGLVQAGGSLRLSCAASGFIFYAYAMGWYRQAPGKERELVAAISYSGGSTYYADSVKGRFTISRDNAKNTVYLQMNSLKPEDTAVYYCNTVSYGYSSKLYDYWGQGTLVTVSS	high polyreactivity
QVQIVESGGVLVQPGGILRLSCAASGFTFDAYDMGWYRQAPGKERELVAANSWRGIDTTYADSVKWRFTISRDNAKNPVFLQMNSLKPEDTAVYYCAEFVSDATVGTSKGLDYWGQGTQVTVSS	low polyreactivity
QVQLVESGGGIVQAGGSLRLSCAASGRILSSYAMGWYRQAPGKERELVARISYSGGRTYYADSVKGRFTISRDNAKNTVYLQMNSQKPEDTAVYYCAAVSRVHFSYIYDYWGQGTQVTVSS	high polyreactivity
QLQLVESVGGLVHAGGSLRLSCAASGSTFVLYAMGWYRQAPGKERELVATITTSGARTHYADSVKGRFTISRDNAKNTVYLQMNRLKPEDTAVYNCAAESYWTGDDYWGQGTQVTVSS	low polyreactivity
QVQLVESGGALVQAGGSLRLSCAASGNTFRGYTMGWYRQAPGKEREFVAAISWSGGRTNYADSVKGRFTISRDNAKNTVYLQMNSLTPEDTAVYYCGRDYRARRWGMDYWGQGTQVTVSS	high polyreactivity
QVQLVESGGGLVQAGGSLRLSCADSGSIFDVNVMGWYRQAPAKERELVASINISGASTYYADSVKGRLTISRDNAKNTVSLQMNSLKPEDTAVYYCAGTYGVPSFRYGYWGQGTQVTVSS	low polyreactivity
QVQLVESGGGLVQAGGSLRLSCAASGRTFRNYAMGWYRPAPGKERELVAAITWSGGSTYYADSVKGRFTISRDNAKNTVYLQMNSLKPEDTAVYYCNVRSYTRTYNYWGQGTQVTVSS	high polyreactivity
QVQLVESGGGLVQAGRSLCLSCAASGSIFINAMGWYRQAPGKERELVATIRWRGGTTYYADSVKGRFTISRDNAKNTVDLQMNSLKPEATAVYYCAADRSYYPDTRTTYGYNYWGQGTQVTVSS	low polyreactivity
QVQLVESGGGLVQAGGSLRLSCAASGSIFSYNALGWYRQAPGKEREFVAAISARGGSTYYADSVKGRFTISRDNAKNTVYLLMNSLKPEDTAVYYCAASWGLGTYSDSTYWGGYYYWGQGTQVTVSS	low polyreactivity
QVQLVESGGGLVQAGGSLRLSCAASGYIFDIYAMGWYRQAPGKERELVAVITRSGGGTYYADSVKGRFTISRDNAKNSVYLQMNSLKPEDTAVYYCAAESYVYGGSDYDYWGQGTQVTVSS	low polyreactivity
QVQLVESGGGLVQAGGSLRLSCAASGRIYGGYAMGWYRQAPGKERELVAAISSRGGSTYYADSVKGRFTISRDNAKNTVYFQMNSLKPEDTAVYYFADDGRVKGWGQGTQVTVSS	high polyreactivity

Values from the nanobody polyreactivity screen of Harvey et al. (2022)
